Biological target: human dopamine D2S receptors (Homo sapiens)
Construct: expressed in transfected cells; host or cells: CHO
Sequence (P14416 1-414 isoform P14416-2): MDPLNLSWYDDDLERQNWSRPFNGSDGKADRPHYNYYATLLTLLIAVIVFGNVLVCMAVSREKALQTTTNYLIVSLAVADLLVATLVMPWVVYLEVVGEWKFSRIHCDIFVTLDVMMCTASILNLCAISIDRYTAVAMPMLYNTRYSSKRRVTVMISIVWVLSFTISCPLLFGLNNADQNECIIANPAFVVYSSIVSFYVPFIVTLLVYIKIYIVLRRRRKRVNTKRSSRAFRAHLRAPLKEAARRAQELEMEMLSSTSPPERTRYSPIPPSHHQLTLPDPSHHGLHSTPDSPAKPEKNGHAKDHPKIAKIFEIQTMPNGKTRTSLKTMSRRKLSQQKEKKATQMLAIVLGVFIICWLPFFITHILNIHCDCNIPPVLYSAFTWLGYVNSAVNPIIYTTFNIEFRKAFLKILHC
Experiment: Agonist/antagonist assay, [35S]GTPgammaS binding, human dopamine D2S receptors
Type: biochemical
Conditions: Dopamine D2S; with 3 μM dopamine
measured_parameter: IC50 (nM)
Value expressed in nM; do not type the unit.

Recorded IC50 (compound Cl.Cl.Fc1ccc(-c2cncc(CNC[C@H]3CCc4ccccc4O3)c2)cc1 [Sarizotan, dihydrochloride] ): 66.7

---
Recorded IC50 (compound Cl.Cl.O=c1[nH]c2cccc(C3CCCN(Cc4cncc(-c5ccc(F)cc5)c4)C3)c2o1 (stereo not drawn) [dihydrochloride] ): 17.9

----------
Molecular target: human dopamine D2L receptors (Homo sapiens)
Construct: expressed in transfected cells; host or cells: CHO
Sequence (P14416 whole entry): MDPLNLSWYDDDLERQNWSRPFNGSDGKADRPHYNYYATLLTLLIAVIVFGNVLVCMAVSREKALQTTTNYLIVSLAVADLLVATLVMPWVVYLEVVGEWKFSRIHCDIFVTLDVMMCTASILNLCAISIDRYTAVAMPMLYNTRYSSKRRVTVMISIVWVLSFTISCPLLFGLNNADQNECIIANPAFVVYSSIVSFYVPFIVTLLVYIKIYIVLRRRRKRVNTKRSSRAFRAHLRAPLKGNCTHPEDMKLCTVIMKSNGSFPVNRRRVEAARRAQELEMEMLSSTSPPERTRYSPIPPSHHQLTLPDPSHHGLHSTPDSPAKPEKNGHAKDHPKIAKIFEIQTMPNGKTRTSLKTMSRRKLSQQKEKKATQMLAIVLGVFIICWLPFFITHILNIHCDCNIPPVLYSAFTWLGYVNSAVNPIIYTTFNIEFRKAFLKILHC
Test: Agonist/antagonist assay, [35S]GTPgammaS binding, human dopamine D2L receptors
Type: biochemical
Settings: Dopamine D2L
Quick list: EC50 per entry.

Reference set, count: 2
Recorded EC50 (compound O=C1c2ccccc2OC=C(Cl)N1CCCCN1CC=C(c2ccccn2)CC1 ): > 500 nM

Recorded EC50 (compound Cl.Cl.O=c1[nH]c2cccc(C3CCCN(Cc4cncc(-c5ccc(F)cc5)c4)C3)c2o1 (stereo not drawn) [dihydrochloride] ): > 500 nM

Pending compound:
Recorded EC50 (compound Cl.Cl.Fc1ccc(-c2cncc(CNC[C@H]3CCc4ccccc4O3)c2)cc1 [Sarizotan, dihydrochloride] ): > 500 nM
